These entries and their values trace back to ChEMBL document CHEMBL3124801.

Recorded measurements of inhibition, one per entry
- SYSTEM: Proto-oncogene tyrosine-protein kinase receptor Ret (Homo sapiens)
- PROCEDURE SUMMARY: Inhibition of recombinant human RET at 100 uM incubated for 5 mins with substrate prior to protein addition by fluorescence assay relative to control
Reply numerically in %, unit not repeated.

Solved cases (3 shown):
O=[N+]([O-])c1ccc(S(=O)(=O)Nc2cccc(CNc3ncnc4c3cnn4CCc3ccccc3)c2)cc1 57
COc1ccc(S(=O)(=O)Nc2cccc(CNc3ncnc4c3cnn4CCc3ccccc3)c2)cc1OC 8
C[C@@H](Nc1ncnc2c1cnn2CCc1ccccc1)c1ccccc1 48

Here is the next item to consider.
QUERY: Give recorded inhibition. O=C(Nc1ccc([N+](=O)[O-])cc1)Nc1cccc(CNc2ncnc3c2cnn3CCc2ccccc2)c1
RESULT: 37
